Tested on: diaphorase (Clostridium kluyveri)
Assay: compounds blocking diaphorase resazurin reduction – biochemical, uHTS, resorufin fluorescence, counter-screen for diaphorase-coupled primary assays, primary screen (AID 1217);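 further: plate controls were DMSO with full reaction for no effect and wells lacking NADH for full effect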
Details: diaphorase resazurin-to-resorufin fluorescence, NADH, 16 min; at 20 µM; active compounds read high; bacterial (C. kluyveri) enzyme, not human
About 1,300 (0.68%) of roughly 190,000 compounds were called active. For the sample, actives were picked, then their nearest neighbours and some compounds at random.
Parameter: inhibition (%)
Field format: number, assumed %, no unit text.

O=c1c(-c2ccccc2)coc2cc(O)ccc12 -8.4
COc1ccc(N2CCN(CCCNC(=O)C3CCN(S(=O)(=O)N4CCOCC4)CC3)CC2)cc1 0.3

Q: Returns the measured inhibition for the input compound. Input: COC(=O)c1ccc(CSc2nc3ccccc3c(=O)n2-c2cccc(OC)c2)o1
A: 39.9

###

Test system: diaphorase (Clostridium kluyveri)
Assay: compounds blocking diaphorase resazurin reduction – biochemical, uHTS, resorufin fluorescence, counter-screen for diaphorase-coupled primary assays, primary screen (AID 1217);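 further: plate controls were DMSO with full reaction for no effect and wells lacking NADH for full effect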
Conditions: diaphorase resazurin-to-resorufin fluorescence, NADH, 16 min; at 20 µM; bacterial (C. kluyveri) enzyme, not human
The campaign covered roughly 190,000 compounds. About 1,300 (0.68%) were called active.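 How the source made its calls: active means primary screen inhibition at 20 µM above a set limit (cut at about 50% in these data); inactive means the rest.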 What follows is part of a selection rich in actives, with near analogues and random picks from the rest.
Form entry, call: pick from active, inactive

Compound	Class
CC(C)c1ccc(/C=C/C(=O)NNC(=O)c2cccnc2)cc1	inactive
Brc1ccc(CSc2ccc(-c3ccco3)nn2)cc1	inactive
Cc1cc(C)c2c(-n3cccc3)c(NC(=O)OCc3ccccc3)sc2n1	inactive
O=C(/C=C/c1ccc(F)cc1)NCCNC(=O)/C=C/c1ccc(F)cc1	inactive

Q: Answer briefly: the call reported for C=CCOc1cccc(CNn2cn[nH]c2=S)c1 in this assay.
A: inactive

Q: Called result for Cc1ccc(NC(=O)CSc2nnc(CNC(=O)c3ccccc3F)o2)cc1
A: inactive

Q: Tell me the recorded outcome of this test for Cc1cc(=O)[nH]c(=S)[nH]1 .
A: inactive

Q: # outcome recorded in this test, key = O=c1[nH]c(=S)[nH]c2[nH]c(=S)[nH]c12
A: active

Q: Would you mind telling me which call this test gave c1ccc(-c2cc3c(NCC4COc5ccccc5O4)ncnc3s2)cc1 (centres undefined) ?
A: inactive
